Where these numbers come from: patent US20240209076A1

target: T1, human IL-6 (human, UniProt P05231 30-212); test: SPR Biacore, supernatant Ab on Protein A chip, 37 C
T1 construct: IL-6 flowed over captured antibodies
T1 sequence (P05231 30-212 limits assumed): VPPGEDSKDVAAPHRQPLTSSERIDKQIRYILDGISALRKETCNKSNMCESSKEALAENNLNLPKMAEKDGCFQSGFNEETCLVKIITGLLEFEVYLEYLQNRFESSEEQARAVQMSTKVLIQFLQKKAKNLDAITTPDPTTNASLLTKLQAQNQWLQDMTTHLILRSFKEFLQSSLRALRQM
Recorded Kd by entry
Write the value in nM as a bare number.

In the examples that follow, each entry is paired with its recorded Kd.
| binder | readout-kind | unit-spec | readout-number |
| --- | --- | --- | --- |
| anti-IL-6 antibody, heavy chain T63K, G66D / light chain M32L, M50D, N52S, M88Q (antibody, IgG1, V domains shown, Full IgG1 (Expi293); VL = variant III) VH: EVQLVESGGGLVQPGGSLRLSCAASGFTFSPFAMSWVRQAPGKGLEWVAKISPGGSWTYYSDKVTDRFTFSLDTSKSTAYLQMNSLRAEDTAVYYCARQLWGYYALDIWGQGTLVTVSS VL: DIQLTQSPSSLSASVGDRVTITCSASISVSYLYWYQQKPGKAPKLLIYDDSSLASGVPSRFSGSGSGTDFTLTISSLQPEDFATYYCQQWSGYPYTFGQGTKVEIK | Kd | nM | 0.246 |
| anti-IL-6 antibody, heavy chain G66D / light chain M32L, M50D, N52S, M88Q (antibody, IgG1, V domains shown, Full IgG1 (Expi293); VL = variant III) VH: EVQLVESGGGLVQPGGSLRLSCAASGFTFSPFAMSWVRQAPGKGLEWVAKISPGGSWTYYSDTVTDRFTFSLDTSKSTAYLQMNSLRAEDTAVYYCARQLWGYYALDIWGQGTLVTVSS VL: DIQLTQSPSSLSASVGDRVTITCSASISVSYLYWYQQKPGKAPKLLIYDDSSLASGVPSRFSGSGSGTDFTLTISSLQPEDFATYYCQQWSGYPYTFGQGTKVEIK | Kd | nM | 0.296 |

We next turn to a different binder, shown below.
stdin: Could you share which Kd value was measured for anti-IL-6 antibody, heavy chain I51W, G66D / light chain M32L, M50D, N52S, M88Q (antibody, IgG1, V domains shown, Full IgG1 (Expi293); VL = variant III) VH: EVQLVESGGGLVQPGGSLRLSCAASGFTFSPFAMSWVRQAPGKGLEWVAKWSPGGSWTYYSDTVTDRFTFSLDTSKSTAYLQMNSLRAEDTAVYYCARQLWGYYALDIWGQGTLVTVSS VL: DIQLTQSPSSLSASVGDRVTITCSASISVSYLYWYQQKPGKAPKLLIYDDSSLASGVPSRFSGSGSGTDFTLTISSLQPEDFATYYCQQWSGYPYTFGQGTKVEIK ?
stdout: 4.84
